B1: SMARCE1 (parent)
chain: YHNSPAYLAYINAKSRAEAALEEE

variants of: B1; assay: protein stability index of a GFP-peptide fusion (GPS, HEK-293T) (PSI 1-6); higher = more stable; settings: c terminus: a fixed tail appended;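 note: lentivirally expressed fusions sorted by FACS into six bins by GFP to DsRed ratio, PSI derived from sequencing read proportions per bin multiplied by bin number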
Measured property: protein stability index

Use these answered entries as a reference point.
>>> result_value("YHNSPAYLAYENAKSRAEAALEEE [I11E]")
2.64
>>> result_value("YHNSPAYLAYINAKSRAMAALEEE [E18M]")
2.11
>>> result_value("YHNSPAYLAYINAKSRAEAALERE [E23R]")
1.82
>>> result_value("YHNSPAYLAYINADSRAEAALEEE [K14D]")
1.16

Provide the reported protein stability index of each entry below, same order.
1. YHNSPAYLAYINAKSAAEAALEEE [R16A]
2. YHHSPAYLAYINAKSRAEAALEEE [N3H]
3. YHNSPAYLAYINAKSRAGAALEEE [E18G]
4. YHNSPQYLAYINAKSRAEAALEEE [A6Q]
5. YHNSPAYLAYYNAKSRAEAALEEE [I11Y]
6. EHNSPAYLAYINAKSRAEAALEEE [Y1E]
7. YHNSPAYLAYLNAKSRAEAALEEE [I11L]
8. YHNSPAYLAYINPKSRAEAALEEE [A13P]

Response:
1. 2.04
2. 1.69
3. 2.31
4. 2.11
5. 3.27
6. 5.26
7. 2.24
8. 2.63

Prompt: Entry NHNSPAYLAYINAKSRAEAALEEE [Y1N] : reported protein stability index = ?
Response: 4.85

Taken from the supplement of paper PMC10567573.
